Assay Protocol: Example 3: Phase I single-dose crossover bioequivalence/dose proportionality study, 1 mg, 2 mg, 4 mg tablets, healthy adult volunteers
Type: in vivo, human
Conditions Used: human, in vivo, 1 mg, t1/2
Result Type: half-life (h)

molecule="N=C(N)NC(=O)Cc1c(Cl)cccc1Cl [guanfacine]" result_type=half-life endpoint_result=17.5

====

Assay Protocol: Example 3: Phase I single-dose crossover bioequivalence/dose proportionality study, 1 mg, 2 mg, 4 mg tablets, healthy adult volunteers
Assay type: in vivo, human
Conditions Used: human, in vivo, po, 4 mg, AUC0-t
Result Type: AUC(0-t) (ng·h/mL)

cpd_smiles=N=C(N)NC(=O)Cc1c(Cl)cccc1Cl result_type=AUC(0-t) endpoint_result=120
